I'd appreciate it if you could supply inhibition at 10 µM values for the items below.
tested system: GPR73 (prokineticin 1 receptor) (Homo sapiens, UniProt Q8TCW9)
Construct: expressed in transfected cells; host or cells: HEK 293
Sequence (Q8TCW9 whole entry, species assumed): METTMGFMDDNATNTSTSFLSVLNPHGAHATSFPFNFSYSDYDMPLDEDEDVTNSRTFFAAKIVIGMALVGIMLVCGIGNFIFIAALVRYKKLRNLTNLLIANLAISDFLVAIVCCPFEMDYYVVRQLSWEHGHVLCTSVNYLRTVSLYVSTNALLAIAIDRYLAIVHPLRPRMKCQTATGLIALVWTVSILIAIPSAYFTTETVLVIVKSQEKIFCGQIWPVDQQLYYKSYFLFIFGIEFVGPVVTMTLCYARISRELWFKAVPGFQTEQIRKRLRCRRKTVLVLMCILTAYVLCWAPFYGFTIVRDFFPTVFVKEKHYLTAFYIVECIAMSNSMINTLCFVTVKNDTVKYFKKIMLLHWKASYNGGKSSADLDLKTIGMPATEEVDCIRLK
protocol text: PK1 functional assay: Ca2+ mobilization screening for PK1 antagonists on the FLIPR
Assay type: cell-based
setup conditions: HEK293, 10 μM compound; HEK 293 GPR73 cells; multiple values = multiple testing; read-out: Ca^2+ Mobilization % Inh @ 10 μM
Answers are plain numbers, in %.

Dear colleague, could you please provide inhibition at 10 µM for the compounds listed below?
1. COc1ccc(Cn2c(OCc3cccnc3)cc(=O)n(Cc3ccc(OC)cc3)c2=O)cc1
2. COc1ccc(Cn2c(=O)nc(NCc3cccnc3N)n(Cc3ccc(OC)cc3F)c2=O)cc1

# output
[58, 102]

Dear colleague, could you please provide inhibition at 10 µM for the compounds listed below?
1. COc1ccc(Cn2c(NCc3cccnc3N)nc(=O)n(CC3COc4ccccc4O3)c2=O)cc1 (stereo not shown)
2. COc1ccc(Cn2c(NCc3cc4ccccc4nc3N)nc(=O)n(Cc3ccc(OC)cc3)c2=O)cc1

# output
40
95

Values were extracted from patent US20080287445A1.
